# Study System: SARS-CoV-2 3CLpro (Severe acute respiratory syndrome coronavirus 2, UniProt P0DTD1)
# Measurement Notes: FRET based protease assay, SARS-CoV-2 3CL
pIC50: −log10 of the molar value.
Measurement Kind: pIC50

// worked examples, pIC50 included
Molecule	Study System	pIC50
CC1(C)C[C@H]2C(=O)N[C@H](C#N)C[C@@H]3C(=O)NC[C@@H]3CCCC[C@H](NC(=O)OC(C)(C)C)C(=O)N2C1 [Example 130]	SARS-CoV-2 3CLpro (Severe acute respiratory syndrome coronavirus 2, UniProt P0DTD1)	6.00 to 7.00
CC(C)(C)C[C@@H]1NC(=O)[C@@H](NC(=O)C(C)(C)C)CCCC[C@H]2CNC(=O)[C@H]2C[C@@H](C#N)NC1=O [Example 53]	SARS-CoV-2 3CLpro (Severe acute respiratory syndrome coronavirus 2, UniProt P0DTD1)	> 7.00

-- ask Record request: pIC50 value, item CC(C)C[C@@H]1NC(=O)[C@@H](Cc2ccc(F)cc2)CCCC[C@H]2CNC(=O)[C@H]2C[C@@H](C#N)NC1=O [Example 43]
-- reply 4.70 to 6.00

-- ask Record request: pIC50 value, item CC(C)C[C@@H]1NC(=O)[C@@H](C2CCCC2)CCC[C@H]2CNC(=O)[C@@H]2C[C@@H](C#N)NC1=O [Example 28]
-- reply 4.70 to 6.00

-- ask Record request: pIC50 value, item CC(C)C[C@@H]1NC(=O)CCCC[C@H]2CNC(=O)[C@@H]2C[C@@H](C#N)NC1=O [Example 24]
-- reply 4.70 to 6.00

-- ask Record request: pIC50 value, item CO[C@@H]1C[C@H]2C(=O)N[C@H](C#N)C[C@@H]3C(=O)NC[C@@H]3CCCC[C@H](NC(=O)OC(C)(C)C)C(=O)N2C1 [Example 147]
-- reply > 7.00

-- ask Record request: pIC50 value, item CC(C)C[C@@H]1NC(=O)[C@@H](Cc2ccccc2)CCCCC[C@H]2CNC(=O)[C@H]2C[C@@H](C#N)NC1=O [Example 50]
-- reply 4.70 to 6.00

-- ask Record request: pIC50 value, item CC(C)(C)C(=O)N[C@H]1CCCC[C@H]2CNC(=O)[C@H]2C[C@@H](C#N)NC(=O)[C@@H]2CCCCN2C1=O [Example 71]
-- reply 4.70 to 6.00

-- ask Record request: pIC50 value, item CC(C)C[C@@H]1NC(=O)[C@@H](Cc2ccccc2)CCCC[C@H]2CNC(=O)[C@H]2C[C@@H](C=O)NC1=O [Example 36]
-- reply > 7.00

-- ask Record request: pIC50 value, item CC(C)C[C@@H]1NC(=O)[C@@H](NC(=O)C(C)(C)C)CCCC[C@H]2CNC(=O)[C@H]2C[C@@H](C#N)NC1=O [Example 44]
-- reply > 7.00

-- ask Record request: pIC50 value, item CC1(C)[C@@H]2[C@H]3C(=O)N[C@H](C#N)C[C@@H]4C(=O)NC[C@@H]4CCCC[C@H](NC(=O)OC4CCCC4)C(=O)N3C[C@@H]21 [Example 75]
-- reply > 7.00

-- ask Record request: pIC50 value, item CC1(C)[C@@H]2[C@H]3C(=O)N[C@H](C#N)C[C@@H]4C(=O)NC[C@@H]4CCCC[C@H](NC(=O)C(F)(F)F)C(=O)N3C[C@@H]21 [Example 87]
-- reply > 7.00

-- ask Record request: pIC50 value, item CC(C)C[C@@H]1NC(=O)[C@@H](OC(C)(C)C)CCC[C@H]2CNC(=O)[C@@H]2C[C@@H](C=O)NC1=O [Example 20]
-- reply 4.70 to 6.00
